tested on: HIV-1 (strain IIIB); experiment: microbe, parasite or virus in culture; type: cell-based; details: Human immunodeficiency virus 1, 120 h; MT4 cells infected with HIV-1 strain IIIB, 5 days; lower line of each compound's entry; read-out: IC50 (MT-4 cells)
measurement-name: IC50

// below: answered compounds
compound	IC50
NCCNc1cccc(S(=O)(=O)N(CC(O)C(Cc2ccccc2)NC(=O)OC2COC3OCCC23)OC2CCCC2)c1 (stereo not shown)	100 to 500 nM
CCC(C)ON(C[C@@H](O)[C@H](Cc1ccccc1)NC(=O)OC1CO[C@H]2OCC[C@@H]12)S(=O)(=O)c1ccc(OC)cc1 (stereo partly shown)	≤ 100 nM

List reported IC50 for each of these compounds:
1. CCC(C)ON(C[C@@H](O)[C@H](Cc1ccccc1)NC(=O)c1cccc(O)c1C)S(=O)(=O)c1ccc(OC)cc1 (stereo partly shown)
2. COc1ccc(S(=O)(=O)N(C[C@@H](O)[C@H](Cc2ccccc2)NC(=O)c2cccc(O)c2C)OC2CCOCC2)cc1

RESULT:
1. > 500 nM
2. > 500 nM

The origin of these recorded values is patent US20040097594A1.
